# Test system: Aspergillus ochraceus
# test name: Antimicrobial activity against Aspergillus ochraceus by broth microdilution method
# Format: functional
Recorded MIC50 for the following molecules

# molecule, unit text, MIC50
data = [
    ("C[C@@H]1[C@H](O)[C@@H](C)/C=C/C=C/C=C/C=C/C=C/C=C/C=C/[C@H](O[C@@H]2O[C@H](C)[C@@H](O)[C@H](N)[C@@H]2O)C[C@@H]2O[C@](O)(C[C@@H](O)C[C@@H](O)[C@H](O)CC[C@@H](O)C[C@@H](O)CC(=O)O[C@H]1C)C[C@H](O)[C@H]2C(=O)O", "µg/mL", 0.5),
    ("CC[C@@H]([C@H](C)O)n1ncn(-c2ccc(N3CCN(c4ccc(OC[C@@H]5CO[C@@](Cn6cncn6)(c6ccc(F)cc6F)C5)cc4)CC3)cc2)c1=O", "µg/mL", 0.12),
    ("CCC(C)n1ncn(-c2ccc(N3CCN(c4ccc(OCC5COC(Cn6cncn6)(c6ccc(Cl)cc6Cl)O5)cc4)CC3)cc2)c1=O (centres undefined)", "µg/mL", 0.5),
    ("CC[C@H](C)C[C@H](C)CCCCCCCCC(=O)N[C@H]1C[C@@H](O)[C@@H](NCCN)NC(=O)[C@@H]2[C@@H](O)CCN2C(=O)[C@H]([C@H](O)CCN)NC(=O)[C@H]([C@H](O)[C@@H](O)c2ccc(O)cc2)NC(=O)[C@@H]2C[C@@H](O)CN2C(=O)[C@H]([C@@H](C)O)NC1=O", "µg/mL", 0.12),
]
